System: NCI-H1688
Assay: inhibition of cell viability relative to untreated control (fraction); higher = stronger growth inhibition, active = 0.5 or more
Details: 30 µM; 24 h
outcome_measure: inhibition of cell viability
Number only, no unit.

CC(=O)O[C@]1(C(C)=O)CC[C@H]2[C@@H]3C[C@H](C)C4=CC(=O)CC[C@]4(C)[C@H]3CC[C@@]21C; 0.01
CC[C@@]1(O)C(=O)OCc2c1cc1n(c2=O)Cc2cc3cc(O)ccc3nc2-1 [Hydroxy Camptothecine]; 0.97
OC[C@H]1O[C@H](O[C@]2(CCl)O[C@H](CCl)[C@@H](O)[C@@H]2O)[C@H](O)[C@@H](O)[C@H]1Cl; 0.0847

QUERY: Query (compound): OCc1c[nH]c2ccccc12 ; field requested: inhibition of cell viability
RESULT: 0.0235

QUERY: # input compound: CC1OC(OC2C(OC3CCC4(C)C(CCC5(C)C4CC=C4C6CC(C)(C)CCC6(C(=O)OC6OC(COC7OC(CO)C(O)C(O)C7O)C(O)C(O)C6O)CCC45C)C3(C)CO)OCC(O)C2O)C(O)C(O)C1O (stereo unspecified) [Dipsacoside B] ; wanted: its inhibition of cell viability
RESULT: 0.235

QUERY: Could you tell me which inhibition of cell viability is on file for CC[C@]12CCCN3CCc4c(n(c5ccccc45)[C@@](O)(C(=O)OC)C1)[C@@H]32 ?
RESULT: 0.408

----------
List of inhibition of cell viability values.
Tested on: NCI-H1688
Experiment: inhibition of cell viability relative to untreated control (fraction); higher = stronger growth inhibition, active = 0.5 or more
Settings: 30 µM; 24 h
Respond with the number and no other words.

Use these answered entries as a reference point.
COc1cc2c(cc1OC)-c1cc3ccc(OC)c(OC)c3c[n+]1CC2 [Palmatine chloride]; 0.0401
O=C(O)c1cc(O)c(O)c(O)c1; 0.44
C[C@]12C[C@H](O)[C@H]3[C@@H](CCC4=CC(=O)CC[C@@]43C)[C@@H]1CC[C@@H]2C(=O)CO; 0.0335

QUERY: Report inhibition of cell viability for COC(=O)C1=CO[C@@H](O[C@@H]2O[C@H](CO)[C@@H](O)[C@H](O)[C@H]2O)[C@@H]2C(CO)=CC[C@H]12 [Geniposide] please.
RESULT: 0.00243

----------
System: NCI-H1688
Test: inhibition of cell viability relative to untreated control (fraction); higher = stronger growth inhibition, active = 0.5 or more
Details: 30 µM; 24 h
Choose the fitting class; nothing outside label 1 for active, label 0 for inactive is accepted.

O=C(O)C=CC=Cc1ccccc1 [5-Phenyl-2,4-pentadienoic acid]; label 0

QUERY: Which outcome was assigned to O=c1c(-c2ccc(O)cc2)coc2cc(O[C@@H]3O[C@H](CO)[C@@H](O)[C@H](O)[C@H]3O)ccc12 [Daidzin] in this test?
RESULT: label 0

----------
Test system: NCI-H1688
Test: inhibition of cell viability relative to untreated control (fraction); higher = stronger growth inhibition, active = 0.5 or more
Conditions: 30 µM; 24 h
Structures can show the parent of a compound that is named as a salt.
This listing pairs compounds with measured inhibition of cell viability.
Field format: numeric only.

In the examples that follow, each entry is paired with its recorded inhibition of cell viability.
C[C@H]1O[C@@H](O[C@H]2[C@@H](O)C[C@H](O[C@H]3[C@@H](O)C[C@H](O[C@H]4CC[C@@]5(C)[C@H](CC[C@@H]6[C@@H]5CC[C@]5(C)[C@@H](C7=CC(=O)OC7)CC[C@]65O)C4)O[C@@H]3C)O[C@@H]2C)C[C@H](O)[C@@H]1O [Digitoxin]; 0.981
Nc1ncnc2c1ncn2[C@@H]1O[C@H](CO)C[C@H]1O [Cordycepin]; -0.154
Cc1nc(C)c(C)nc1C [Ligustrazine hydrochloride]; -0.157

QUERY: Endpoint output: inhibition of cell viability of CC(C)=CCC[C@](C)(O[C@@H]1O[C@H](CO)[C@@H](O)[C@H](O)[C@H]1O)[C@H]1CC[C@]2(C)[C@@H]1[C@H](O)C[C@@H]1[C@@]3(C)CC[C@H](O)C(C)(C)[C@@H]3[C@@H](O[C@@H]3O[C@H](CO)[C@@H](O)[C@H](O)[C@H]3O[C@@H]3O[C@@H](C)[C@H](O)[C@@H](O)[C@H]3O)C[C@]12C [Ginsenoside Re] . Value?
RESULT: -0.0285

QUERY: # query: inhibition of cell viability of entry Cc1ncc(CO)c(CO)c1O [Pyridoxine hydrochloride]
RESULT: 0.171

QUERY: Bench note: what inhibition of cell viability did CC1=CC(=O)CC(C)(C)[C@@]1(O)/C=C/C(C)=C\C(=O)O [Abscisic acid] show?
RESULT: -0.139

QUERY: Request the reported inhibition of cell viability associated with O=C(O[C@@H]1Cc2c(O)cc(O)cc2O[C@@H]1c1ccc(O)c(O)c1)c1cc(O)c(O)c(O)c1 [(-)-Epicatechin gallate]
RESULT: 0.121

QUERY: Which inhibition of cell viability value belongs to O=c1[nH]cnc2c1ncn2[C@H]1C[C@H](O)[C@@H](CO)O1 [2'-Deoxyinosine] ?
RESULT: -0.00407

QUERY: Endpoint output: inhibition of cell viability of NC(=O)CC[C@H](N)C(=O)O [L-Glutamine] . Value?
RESULT: -0.0181

QUERY: Suppose we examine the compound C[N+]1(C)CCCC1C(=O)O (stereo unspecified) ; what inhibition of cell viability value has been reported?
RESULT: 0.205

QUERY: Can you share its inhibition of cell viability? I mean this compound: C/C=C(/C)C(=O)OC(C)(C)[C@@H]1Cc2c(ccc3ccc(=O)oc23)O1 [Columbianadin]
RESULT: 0.338

Data credit: the supplement of paper PMC11634586
